- subject-of-test: MC4 receptor (Homo sapiens)
- Sequence (P32245 whole entry): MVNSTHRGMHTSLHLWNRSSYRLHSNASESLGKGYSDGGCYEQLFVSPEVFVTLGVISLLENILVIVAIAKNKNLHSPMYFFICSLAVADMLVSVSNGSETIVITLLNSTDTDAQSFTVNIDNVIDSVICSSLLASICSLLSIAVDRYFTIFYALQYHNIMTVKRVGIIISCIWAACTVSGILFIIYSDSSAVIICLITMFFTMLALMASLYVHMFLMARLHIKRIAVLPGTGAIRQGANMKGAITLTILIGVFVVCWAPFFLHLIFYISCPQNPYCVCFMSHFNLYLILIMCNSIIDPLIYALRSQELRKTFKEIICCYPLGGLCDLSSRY
- method: MC4 EC50 functional potency (protocol E of US2005/0176772 / WO 2005/077935)
reported-endpoint: EC50 (nM)

molecule=COc1ccc([C@@H]2CN(C(C)(C)C)C[C@H]2C(=O)N2CCC[C@@H](c3ccc(Cl)cc3)N(C(=O)C3CC(F)(F)C3)CC2)c(F)c1 reported_endpoint=EC50 unit_of_measure=nM reading=18.4
molecule="CS(=O)(=O)N1CCN(C(=O)[C@@H]2CN(c3ccc(C#N)nn3)C[C@H]2c2ccc(C#N)cc2)CCCC1c1ccc(Cl)cc1 (mixture of isomers)" reported_endpoint=EC50 unit_of_measure=nM reading=168
molecule="COC(=O)N1CCN(C(=O)[C@@H]2CN(c3ccc(C#N)nn3)C[C@H]2c2ccc(F)cc2F)CCCC1c1ccc(Cl)cc1 (mixture of isomers)" reported_endpoint=EC50 unit_of_measure=nM reading=10.7
molecule=CCC(=O)N1CCN(C(=O)[C@@H]2CN(c3ccc(=O)n(C)n3)C[C@H]2c2ccc(F)cc2F)CCC[C@H]1c1ccc(Cl)cc1 reported_endpoint=EC50 unit_of_measure=nM reading=5.29
molecule=CC(C)(C)C(=O)N1CCN(C(=O)[C@@H]2CN(C(C)(C)C)C[C@H]2c2ccc(F)cc2F)CCC[C@H]1c1ccc(Cl)cc1 reported_endpoint=EC50 unit_of_measure=nM reading=10.6
molecule=CC(C)C(=O)N1CCN(C(=O)[C@@H]2CN(C(C)(C)C)C[C@H]2c2ccc(Cl)cn2)CCC[C@H]1c1ccc(Cl)cc1 reported_endpoint=EC50 unit_of_measure=nM reading=5.46
molecule="CC(=O)N1CCN(C(=O)[C@@H]2CN(C(C)(C)C)C[C@H]2c2ccc(F)cc2F)CCC1c1ccc(F)cc1F (mixture of isomers)" reported_endpoint=EC50 unit_of_measure=nM reading=152
molecule="CCCC(=O)N1CCN(C(=O)[C@@H]2CN(C(C)(C)C)C[C@H]2c2ccc(F)cc2F)CCCC1c1ccccc1 (mixture of isomers)" reported_endpoint=EC50 unit_of_measure=nM reading=18
molecule=CC(C)C(=O)N1CCN(C(=O)[C@@H]2CN(c3ccc(=O)n(C)n3)C[C@H]2c2ccc(Cl)cn2)CCC[C@H]1c1ccc(Cl)cc1 reported_endpoint=EC50 unit_of_measure=nM reading=2.11
molecule="CC(C)(C)N1C[C@@H](C(=O)N2CCC(c3ccc(F)cc3F)N(S(C)(=O)=O)CC2)[C@H](c2ccc(F)cc2F)C1 (mixture of isomers)" reported_endpoint=EC50 unit_of_measure=nM reading=397
molecule="COC(=O)N1CCN(C(=O)[C@@H]2CN(c3ccc(C#N)nn3)C[C@H]2c2ccc(F)cc2F)CCCC1c1cccc(OC)c1 (mixture of isomers)" reported_endpoint=EC50 unit_of_measure=nM reading=74
molecule=COC(=O)N1CCN(C(=O)[C@@H]2CN(c3ccc(=O)n(C)n3)C[C@H]2c2ccc(OC)cc2F)CCC[C@@H]1c1ccc(Cl)cc1 reported_endpoint=EC50 unit_of_measure=nM reading=8.53
molecule=COC(=O)N1CCN(C(=O)[C@@H]2CN(c3ccc(C#N)nn3)C[C@H]2c2ccc(Cl)cn2)CCC[C@H]1c1ccc(Cl)cc1 reported_endpoint=EC50 unit_of_measure=nM reading=5.26
molecule="COC(=O)N1CCN(C(=O)[C@@H]2CN(c3ccc(C#N)nn3)CC2c2ccc(OC)cc2F)CCCC1c1ccc(Cl)cc1 (stereo in doubt)" reported_endpoint=EC50 unit_of_measure=nM reading=6.4
